What % inhibition at 10 µM was measured for each of the following?
tested on: GABAA receptor; assay: PDSP radioligand binding, GABAA; conditions: single concentration 10 µM
Give a bare numeral; the unit % is implied.

Notebook: pull reported % inhibition at 10 µM for GABAA receptor, entry `CNC(=O)[C@@]12C[C@@H]1[C@@H](n1cnc3c(NCc4cccc(Cl)c4)nc(Cl)nc31)[C@H](O)[C@@H]2O`
0

Notebook: pull reported % inhibition at 10 µM for GABAA receptor, entry `CNC(=O)[C@@]12C[C@@H]1[C@@H](n1cnc3c(NCc4cccc(Cl)c4)nc(C#Cc4ccc(F)cc4)nc31)[C@H](O)[C@@H]2O`
0

Notebook: pull reported % inhibition at 10 µM for GABAA receptor, entry `Clc1cccc(CNc2nc(Cl)nc3[nH]cnc23)c1`
8

Notebook: pull reported % inhibition at 10 µM for GABAA receptor, entry `O[C@@H]1[C@H](O)[C@@H]2C[C@@H]2[C@H]1n1cnc2c(NC(C3CC3)C3CC3)nc(Cl)nc21`
11

Notebook: pull reported % inhibition at 10 µM for GABAA receptor, entry `Fc1ccc(C#Cc2nc(NCc3cccc(Cl)c3)c3nc[nH]c3n2)cc1F`
0

Notebook: pull reported % inhibition at 10 µM for GABAA receptor, entry `CNC(=O)[C@@]12C[C@@H]1[C@@H](n1cnc3c(NCc4cccc(Cl)c4)nc(C#Cc4ccccc4Cl)nc31)[C@H](O)[C@@H]2O`
0

Notebook: pull reported % inhibition at 10 µM for GABAA receptor, entry `O[C@@H]1[C@H](O)[C@@H]2C[C@@H]2[C@H]1n1cnc2c(NCc3cccc(Cl)c3)ncnc21`
0

Notebook: pull reported % inhibition at 10 µM for GABAA receptor, entry `CNC(=O)[C@@]12C[C@@H]1[C@@H](n1cnc3c(NC)nc(C#Cc4ccc(F)c(F)c4)nc31)[C@H](O)[C@@H]2O`
0

Notebook: pull reported % inhibition at 10 µM for GABAA receptor, entry `CNC(=O)[C@@]12C[C@@H]1[C@@H](n1cnc3c(NCc4cccc(Cl)c4)nc(C#Cc4ccc(F)c(F)c4)nc31)[C@H](O)[C@@H]2O`
0

###

Target: M5 muscarinic acetylcholine receptor (Homo sapiens)
Sequence (P08912 1-532): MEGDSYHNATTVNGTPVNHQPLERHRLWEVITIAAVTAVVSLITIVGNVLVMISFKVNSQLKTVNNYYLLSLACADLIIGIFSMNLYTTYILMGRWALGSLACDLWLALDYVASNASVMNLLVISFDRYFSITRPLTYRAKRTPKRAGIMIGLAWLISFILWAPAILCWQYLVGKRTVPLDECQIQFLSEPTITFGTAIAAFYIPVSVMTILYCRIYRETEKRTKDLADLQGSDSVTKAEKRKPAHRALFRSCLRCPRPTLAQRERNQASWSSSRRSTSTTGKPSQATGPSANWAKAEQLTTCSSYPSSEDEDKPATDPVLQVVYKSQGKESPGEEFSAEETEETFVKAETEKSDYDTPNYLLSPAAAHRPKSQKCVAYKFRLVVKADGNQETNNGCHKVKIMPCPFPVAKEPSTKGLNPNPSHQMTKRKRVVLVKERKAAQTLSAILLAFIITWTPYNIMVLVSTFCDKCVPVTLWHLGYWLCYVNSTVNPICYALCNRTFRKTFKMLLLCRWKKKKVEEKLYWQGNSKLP
Test: PDSP radioligand binding, M5
Details: read-out: % inhibition at 10 µM; single concentration 10 µM
Hi, to clarify the labels: 1 covers inhibition at 10 µM from 2% upward, -1 covers anything below 2%.

Reported inhibition at 10 µM reaches at least 2% for `O[C@@H]1[C@H](O)[C@@H]2C[C@@H]2[C@H]1n1cnc2c(NC(C3CC3)C3CC3)nc(Cl)nc21` ?
-1

Reported inhibition at 10 µM reaches at least 2% for `CNC(=O)[C@@]12C[C@@H]1[C@@H](n1cnc3c(NCc4cccc(Cl)c4)nc(C#Cc4ccccc4Cl)nc31)[C@H](O)[C@@H]2O` ?
1

Reported inhibition at 10 µM reaches at least 2% for `O[C@@H]1[C@H](O)[C@@H]2C[C@@H]2[C@H]1n1cnc2c(NCc3cccc(Cl)c3)nc(C#Cc3ccc(F)c(F)c3)nc21` ?
1

Reported inhibition at 10 µM reaches at least 2% for `Clc1cccc(CNc2nc(Cl)nc3[nH]cnc23)c1` ?
-1

Reported inhibition at 10 µM reaches at least 2% for `CNC(=O)[C@@]12C[C@@H]1[C@@H](n1cnc3c(NCc4cccc(Cl)c4)nc(Cl)nc31)[C@H](O)[C@@H]2O` ?
-1

Reported inhibition at 10 µM reaches at least 2% for `O[C@@H]1[C@H](O)[C@@H]2C[C@@H]2[C@H]1n1cnc2c(NCc3cccc(Cl)c3)ncnc21` ?
1

Reported inhibition at 10 µM reaches at least 2% for `CNC(=O)[C@@]12C[C@@H]1[C@@H](n1cnc3c(NCc4cccc(Cl)c4)nc(C#Cc4ccc(F)cc4)nc31)[C@H](O)[C@@H]2O` ?
1

Reported inhibition at 10 µM reaches at least 2% for `CNC(=O)[C@@]12C[C@@H]1[C@@H](n1cnc3c(NC)nc(C#Cc4ccc(F)c(F)c4)nc31)[C@H](O)[C@@H]2O` ?
1

###

target: M1 muscarinic acetylcholine receptor (Homo sapiens); experiment: PDSP radioligand binding, M1; conditions: read-out: % inhibition at 10 µM; single concentration 10 µM
Sequence (P11229 whole entry): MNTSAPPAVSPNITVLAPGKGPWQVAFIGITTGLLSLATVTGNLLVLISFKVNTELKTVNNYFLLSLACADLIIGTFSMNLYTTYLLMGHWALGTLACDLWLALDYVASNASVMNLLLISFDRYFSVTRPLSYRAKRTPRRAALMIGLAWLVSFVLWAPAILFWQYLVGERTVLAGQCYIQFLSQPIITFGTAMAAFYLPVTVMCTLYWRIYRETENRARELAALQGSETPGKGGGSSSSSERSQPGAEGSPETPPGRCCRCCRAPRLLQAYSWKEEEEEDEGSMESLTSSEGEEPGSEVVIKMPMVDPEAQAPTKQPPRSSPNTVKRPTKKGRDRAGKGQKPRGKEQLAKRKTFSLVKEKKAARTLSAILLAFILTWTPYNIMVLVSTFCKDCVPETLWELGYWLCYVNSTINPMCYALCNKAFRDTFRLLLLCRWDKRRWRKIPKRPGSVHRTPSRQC
Hi, to clarify the labels: Met covers inhibition at 10 µM from 10% upward, Not met covers anything below 10%.

Reported inhibition at 10 µM reaches at least 10% for `O[C@@H]1[C@H](O)[C@@H]2C[C@@H]2[C@H]1n1cnc2c(NCc3cccc(Cl)c3)nc(C#Cc3ccc(F)c(F)c3)nc21` ?
Not met

Reported inhibition at 10 µM reaches at least 10% for `Clc1cccc(CNc2nc(Cl)nc3[nH]cnc23)c1` ?
Met

Reported inhibition at 10 µM reaches at least 10% for `CNC(=O)[C@@]12C[C@@H]1[C@@H](n1cnc3c(NCc4cccc(Cl)c4)nc(C#Cc4ccccc4Cl)nc31)[C@H](O)[C@@H]2O` ?
Not met

Reported inhibition at 10 µM reaches at least 10% for `CNC(=O)[C@@]12C[C@@H]1[C@@H](n1cnc3c(NCc4cccc(Cl)c4)nc(Cl)nc31)[C@H](O)[C@@H]2O` ?
Not met

Reported inhibition at 10 µM reaches at least 10% for `O[C@@H]1[C@H](O)[C@@H]2C[C@@H]2[C@H]1n1cnc2c(NCc3cccc(Cl)c3)ncnc21` ?
Met

Reported inhibition at 10 µM reaches at least 10% for `CNC(=O)[C@@]12C[C@@H]1[C@@H](n1cnc3c(NC)nc(C#Cc4ccc(F)c(F)c4)nc31)[C@H](O)[C@@H]2O` ?
Not met

Reported inhibition at 10 µM reaches at least 10% for `CNC(=O)[C@@]12C[C@@H]1[C@@H](n1cnc3c(NCc4cccc(Cl)c4)nc(C#Cc4ccc(F)cc4)nc31)[C@H](O)[C@@H]2O` ?
Met

Reported inhibition at 10 µM reaches at least 10% for `Fc1ccc(C#Cc2nc(NCc3cccc(Cl)c3)c3nc[nH]c3n2)cc1F` ?
Met

Reported inhibition at 10 µM reaches at least 10% for `O[C@@H]1[C@H](O)[C@@H]2C[C@@H]2[C@H]1n1cnc2c(NC(C3CC3)C3CC3)nc(Cl)nc21` ?
Not met

###

molecular target: 5HT2C serotonergic receptor (Homo sapiens); assay: PDSP radioligand binding, 5HT2C; details: read-out: % inhibition at 10 µM; single concentration 10 µM
Sequence (P28335 33-458): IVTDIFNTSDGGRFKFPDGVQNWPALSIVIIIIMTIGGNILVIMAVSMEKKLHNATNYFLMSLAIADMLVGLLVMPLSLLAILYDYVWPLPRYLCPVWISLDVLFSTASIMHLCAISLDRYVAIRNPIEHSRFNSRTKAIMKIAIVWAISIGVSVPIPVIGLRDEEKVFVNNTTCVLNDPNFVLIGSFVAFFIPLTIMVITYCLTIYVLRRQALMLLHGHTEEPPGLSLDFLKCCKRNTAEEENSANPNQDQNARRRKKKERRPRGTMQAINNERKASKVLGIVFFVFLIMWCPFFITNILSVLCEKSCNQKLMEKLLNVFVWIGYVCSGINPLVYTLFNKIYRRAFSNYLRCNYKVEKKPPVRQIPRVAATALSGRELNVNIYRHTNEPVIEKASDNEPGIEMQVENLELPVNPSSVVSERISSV
endpoint-name: inhibition at 10 µM (%)
Give a bare numeral; the unit % is implied.

Notebook: pull reported inhibition at 10 µM for 5HT2C serotonergic receptor (Homo sapiens), entry Fc1ccc(C#Cc2nc(NCc3cccc(Cl)c3)c3nc[nH]c3n2)cc1F [Compound 8]
11

Notebook: pull reported inhibition at 10 µM for 5HT2C serotonergic receptor (Homo sapiens), entry CNC(=O)[C@@]12C[C@@H]1[C@@H](n1cnc3c(NCc4cccc(Cl)c4)nc(C#Cc4ccc(F)cc4)nc31)[C@H](O)[C@@H]2O [Compound 2]
16

Notebook: pull reported inhibition at 10 µM for 5HT2C serotonergic receptor (Homo sapiens), entry O[C@@H]1[C@H](O)[C@@H]2C[C@@H]2[C@H]1n1cnc2c(NCc3cccc(Cl)c3)nc(C#Cc3ccc(F)c(F)c3)nc21 [Compound 6]
0

Notebook: pull reported inhibition at 10 µM for 5HT2C serotonergic receptor (Homo sapiens), entry CNC(=O)[C@@]12C[C@@H]1[C@@H](n1cnc3c(NCc4cccc(Cl)c4)nc(Cl)nc31)[C@H](O)[C@@H]2O [Compound 4]
95

Notebook: pull reported inhibition at 10 µM for 5HT2C serotonergic receptor (Homo sapiens), entry CNC(=O)[C@@]12C[C@@H]1[C@@H](n1cnc3c(NCc4cccc(Cl)c4)nc(C#Cc4ccccc4Cl)nc31)[C@H](O)[C@@H]2O [Compound 3]
25

Notebook: pull reported inhibition at 10 µM for 5HT2C serotonergic receptor (Homo sapiens), entry Clc1cccc(CNc2nc(Cl)nc3[nH]cnc23)c1 [Compound 9]
56

Notebook: pull reported inhibition at 10 µM for 5HT2C serotonergic receptor (Homo sapiens), entry O[C@@H]1[C@H](O)[C@@H]2C[C@@H]2[C@H]1n1cnc2c(NCc3cccc(Cl)c3)ncnc21 [Compound 7]
51
